test system: Setaria faberi (SETFA); assay: Glasshouse pre-/post-emergence herbicide test, Table B2; format: in vivo; conditions: PRE Application, 130 g/h, evaluated after 13 days
property measured: SETFA percentage damage, five-point scale

[[record]]
structure_string = "Cn1nnnc1NC(=O)c1ccc(OC(F)(F)F)c(NC(=O)C2CCOCC2)c1Cl"
value_measured = "5 (5=80-100%)"

[[record]]
structure_string = "Cc1c(C(=O)Nc2nnnn2C)ccc(OC(F)(F)F)c1NC(=O)C1CCOCC1"
value_measured = "2 (2=20-39%)"


--- query ---
Input line: Given the compound CCn1nnnc1NC(=O)c1ccc(OC(F)F)c(NC(=O)C2CCOCC2)c1Cl , what is its reported SETFA percentage damage, five-point scale?
Output line: 3 (3=40-59%)

----------
test system: Ipomoea hederacea (IPOHE); experiment: Glasshouse pre-/post-emergence herbicide test, Table B2; format: in vivo; conditions: PRE Application, 130 g/h, evaluated after 13 days
property measured: IPOHE percentage damage, five-point scale

[[record]]
structure_string = "Cn1nnnc1NC(=O)c1ccc(OC(F)(F)F)c(NC(=O)C2(C)CCOCC2)c1Cl"
value_measured = "3 (3=40-59%)"

[[record]]
structure_string = "CCn1nnnc1NC(=O)c1ccc(OC(F)(F)F)c(NC(=O)C2CCOCC2)c1Cl"
value_measured = "5 (5=80-100%)"

[[record]]
structure_string = "Cn1nnnc1NC(=O)c1ccc(OC(F)(F)F)c(NC(=O)C2CCOCC2)c1Cl"
value_measured = "4 (4=60-79%)"


Would you mind listing IPOHE percentage damage, five-point scale for each of the following compounds?
1. Cn1nnnc1NC(=O)c1ccc(OC(F)F)c(NC(=O)C2(C)CCOCC2)c1Cl
2. Cn1nnnc1NC(=O)c1ccc(OC(F)F)c(NC(=O)C2CCOCC2)c1Cl
3. CCn1nnnc1NC(=O)c1ccc(OC(F)F)c(NC(=O)C2CCOCC2)c1Cl

Output line:
2 (2=20-39%)
5 (5=80-100%)
4 (4=60-79%)

Input line: Given the compound Cc1c(C(=O)Nc2nnnn2C)ccc(OC(F)(F)F)c1NC(=O)C1CCOCC1 , what is its reported IPOHE percentage damage, five-point scale?
Output line: 2 (2=20-39%)

----------
test system: Setaria faberi (SETFA); assay: Glasshouse pre-/post-emergence herbicide test, Table B2; format: in vivo; details: PRE Application, 130 g/h, evaluated after 13 days
property measured: SETFA percentage damage, five-point scale

Completed entries (count: 3):
[[record]]
structure_string = "Cn1nnnc1NC(=O)c1ccc(OC(F)F)c(NC(=O)C2(C)CCOCC2)c1Cl"
tested_system = "Setaria faberi (SETFA)"
value_measured = "1 (1=0-19%)"

[[record]]
structure_string = "Cn1nnnc1NC(=O)c1ccc(OC(F)F)c(NC(=O)C2CCOCC2)c1Cl"
tested_system = "Setaria faberi (SETFA)"
value_measured = "5 (5=80-100%)"

[[record]]
structure_string = "Cn1nnnc1NC(=O)c1ccc(OC(F)(F)F)c(NC(=O)C2(C)CCOCC2)c1Cl"
tested_system = "Setaria faberi (SETFA)"
value_measured = "1 (1=0-19%)"


Input line: Given the molecule CCn1nnnc1NC(=O)c1ccc(OC(F)(F)F)c(NC(=O)C2CCOCC2)c1Cl , what is its reported SETFA percentage damage, five-point scale?
Output line: 5 (5=80-100%)
